meta.source: ChEMBL document CHEMBL1149417

List of pIC50 values.
measured.target: Androgen receptor (Homo sapiens)
Sequence (P10275 whole entry): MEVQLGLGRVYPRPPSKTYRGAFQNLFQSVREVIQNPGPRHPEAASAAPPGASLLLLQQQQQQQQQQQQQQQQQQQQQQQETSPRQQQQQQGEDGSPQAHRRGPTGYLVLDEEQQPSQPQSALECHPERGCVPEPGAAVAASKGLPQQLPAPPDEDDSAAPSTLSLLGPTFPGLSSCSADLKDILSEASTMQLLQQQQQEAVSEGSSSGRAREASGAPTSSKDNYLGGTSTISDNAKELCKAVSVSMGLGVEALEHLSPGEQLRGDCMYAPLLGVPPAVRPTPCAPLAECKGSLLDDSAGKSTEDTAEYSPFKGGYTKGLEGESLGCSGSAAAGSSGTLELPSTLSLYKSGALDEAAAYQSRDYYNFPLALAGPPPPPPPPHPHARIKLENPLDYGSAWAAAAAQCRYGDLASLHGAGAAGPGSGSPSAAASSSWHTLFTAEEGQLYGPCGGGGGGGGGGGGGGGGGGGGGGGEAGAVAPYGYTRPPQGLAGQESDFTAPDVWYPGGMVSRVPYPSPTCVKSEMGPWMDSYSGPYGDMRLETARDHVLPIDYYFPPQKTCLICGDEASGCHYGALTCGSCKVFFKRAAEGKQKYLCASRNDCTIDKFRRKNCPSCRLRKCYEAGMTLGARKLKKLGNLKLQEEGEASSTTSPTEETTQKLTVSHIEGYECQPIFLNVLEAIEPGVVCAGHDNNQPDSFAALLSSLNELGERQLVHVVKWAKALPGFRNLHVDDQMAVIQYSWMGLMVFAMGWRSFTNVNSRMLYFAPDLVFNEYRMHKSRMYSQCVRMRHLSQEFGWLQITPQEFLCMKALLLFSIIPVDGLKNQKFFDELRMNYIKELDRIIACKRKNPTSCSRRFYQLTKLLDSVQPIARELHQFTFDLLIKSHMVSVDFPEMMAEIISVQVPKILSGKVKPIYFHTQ
Note on units: pIC50 is unitless, being -log10 of a concentration expressed in mol/L.

Worked examples follow.
compound: C[C@]12CCC3C(CC=C4C[C@@H](O)CC[C@@]43/C=C\Br)C1CC[C@@H]2O (stereo not given in full)
pIC50: 7.70
//
compound: C=C[C@]12CC[C@H](O)CC1=CCC1C2CC[C@@]2(C)C1CC[C@]2(C)O (stereo not given in full)
pIC50: 6.77
//
compound: CO/C=C\[C@]12CC[C@H](O)CC1=CCC1C2CC[C@@]2(C)C1CC[C@@H]2O (stereo not given in full)
pIC50: 5.85
//
compound: C/C=C/[C@]12CC[C@H](O)CC1=CCC1C2CC[C@@]2(C)C1CC[C@@H]2O (stereo not given in full)
pIC50: 6.07

// below: pIC50 requested for another compound
Read the entry C=CC[C@]12CC[C@H](O)CC1=CCC1C2CC[C@@]2(C)C1CC[C@@H]2O (stereo not given in full) and write its reported pIC50. 5.75

====

measured.target: Estrogen receptor beta (Homo sapiens)
Sequence (Q92731 whole entry): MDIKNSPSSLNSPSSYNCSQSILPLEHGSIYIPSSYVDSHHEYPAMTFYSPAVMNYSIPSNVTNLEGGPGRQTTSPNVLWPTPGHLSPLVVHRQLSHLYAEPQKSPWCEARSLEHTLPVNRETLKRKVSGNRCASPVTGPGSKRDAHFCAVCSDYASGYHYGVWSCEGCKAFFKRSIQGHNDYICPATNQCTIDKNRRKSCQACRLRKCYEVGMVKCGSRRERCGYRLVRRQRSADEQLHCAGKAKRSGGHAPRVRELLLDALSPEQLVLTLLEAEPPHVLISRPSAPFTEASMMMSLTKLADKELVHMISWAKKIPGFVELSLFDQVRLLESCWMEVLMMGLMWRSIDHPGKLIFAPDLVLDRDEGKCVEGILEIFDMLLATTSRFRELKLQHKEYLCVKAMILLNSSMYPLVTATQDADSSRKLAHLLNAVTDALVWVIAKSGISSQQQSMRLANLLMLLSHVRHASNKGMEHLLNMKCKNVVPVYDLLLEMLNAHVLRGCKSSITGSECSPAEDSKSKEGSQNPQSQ
List of IC50 values.
Entry rule: numbers only, all in nM.

compound: C/C=C/[C@]12CC[C@H](O)CC1=CCC1C2CC[C@@]2(C)C1CC[C@@H]2O (stereo partly specified)
IC50 [nM]: 96

compound: C[C@]12CCC3C(CC=C4C[C@@H](O)CC[C@@]43CO)C1CC[C@@H]2O (stereo partly specified)
IC50 [nM]: 1750

compound: C#CC[C@]12CC[C@H](O)CC1=CCC1C2CC[C@@]2(C)C1CC[C@@H]2O (stereo partly specified)
IC50 [nM]: 286

compound: C[C@]12CCC3C(CC=C4C[C@@H](O)CC[C@@]43/C=C/Cl)C1CC[C@@H]2O (stereo partly specified)
IC50 [nM]: 122

State recorded IC50 with Estrogen receptor beta (Homo sapiens), entry C=C[C@]12CC[C@H](O)CC1=CCC1C2CC[C@@]2(C)C1CC[C@]2(C)O (stereo partly specified) , no comment. 25

State recorded IC50 with Estrogen receptor beta (Homo sapiens), entry C[C@]12CCC3C(CC=C4C[C@@H](O)CC[C@@]43C=O)C1CC[C@@H]2O (stereo partly specified) , no comment. 230

====

measured.target: Estrogen receptor (Homo sapiens, UniProt P03372)
Sequence (P03372 whole entry): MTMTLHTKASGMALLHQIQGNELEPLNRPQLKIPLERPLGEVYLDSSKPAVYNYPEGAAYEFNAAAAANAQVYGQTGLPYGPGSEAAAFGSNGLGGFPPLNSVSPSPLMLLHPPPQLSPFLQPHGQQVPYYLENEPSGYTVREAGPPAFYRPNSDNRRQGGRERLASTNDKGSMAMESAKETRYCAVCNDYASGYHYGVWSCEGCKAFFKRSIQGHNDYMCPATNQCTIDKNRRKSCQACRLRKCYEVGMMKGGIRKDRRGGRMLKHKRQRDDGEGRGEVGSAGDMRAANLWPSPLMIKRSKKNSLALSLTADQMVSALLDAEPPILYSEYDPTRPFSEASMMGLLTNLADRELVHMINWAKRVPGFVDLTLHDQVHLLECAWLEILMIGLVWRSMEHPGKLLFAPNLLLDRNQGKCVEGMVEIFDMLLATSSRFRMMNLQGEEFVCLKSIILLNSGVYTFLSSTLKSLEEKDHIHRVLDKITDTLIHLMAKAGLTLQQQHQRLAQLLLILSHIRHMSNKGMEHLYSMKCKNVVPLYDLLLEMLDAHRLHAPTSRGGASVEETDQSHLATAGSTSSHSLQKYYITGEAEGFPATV
assay.readout: pIC50
Note on units: pIC50 is unitless, being -log10 of a concentration expressed in mol/L.

compound: CC[C@]12CC[C@H](O)CC1=CCC1C2CC[C@@]2(C)C1CC[C@@H]2O (some centres undefined)
pIC50: 5.63

compound: C[C@]12CCC3C(CC=C4C[C@@H](O)CC[C@@]43/C=C/Br)C1CC[C@@H]2O (some centres undefined)
pIC50: 5.40

compound: C#CC12CC[C@H](O)CC1=CCC1C2CC[C@@]2(C)C1CC[C@@H]2O (single isomer, unassigned)
pIC50: 6.37

Read the entry C[C@]12CCC3C(CC=C4C[C@@H](O)CC[C@@]43/C=C\F)C1CC[C@@H]2O (some centres undefined) and write its reported pIC50. 5.37

Read the entry C#CC1(O)CCC2C3CC=C4C[C@@H](O)CC[C@]4(C=C)C3CC[C@@]21C (single isomer, unassigned) and write its reported pIC50. 6.83
